Each entry below lists one item and its recorded z-score of subpopulation abundance value.
Test system: Saccharomyces cerevisiae BY4741 SeMeCo community
procedure_summary: z-score of subpopulation abundance vs DMSO median, subpopulation auxotrophic for HUM; higher = larger share of this subpopulation than in DMSO controls
condition_set: 10 µM; 24 h; SM minimal medium; subpopulation (auxotrophy): HUM
Counter-ions that a name gives are not always drawn.
property: z-score of subpopulation abundance

CS(=O)(=O)c1ccc(C2=C(c3ccccc3)C(=O)OC2)cc1 [Rofecoxib] = 0.77
COc1ccccc1OCC(O)CN1CCN(CC(=O)Nc2c(C)cccc2C)CC1 (centres undefined) [Ranolazine 2HCl] = -0.12
CCc1c(C)[nH]c2c1C(=O)C(CN1CCOCC1)CC2 (centres undefined) [Molindone hydrochloride] = -0.76
Cc1cc(CC(C)CC(C)(C)C)n(O)c(=O)c1 (centres undefined) [Piroctone Olamine] = 30.2
O=C(c1ccc(OCCN2CCCCC2)cc1)c1c(-c2ccc(O)cc2)sc2cc(O)ccc12 [Raloxifene] = -0.2
C[C@H](Nc1ncnc2nc[nH]c12)c1cc2cccc(Cl)c2c(=O)n1-c1ccccc1 [Duvelisib (IPI-145, INK1197)] = -0.67
CCN(CC)C(=O)C1(c2ccccc2)CC1CN (centres undefined) [Milnacipran HCl] = -0.13
O=C1c2cccc3c2[C@H](CCC3)CN1[C@@H]1CN2CCC1CC2 [Palonosetron] = 0.12
CC[C@H](c1ccc(O)cc1)[C@@H](CC)c1ccc(O)cc1 [Hexestrol] = -0.88
CC1=Nc2ccc(Cl)cc2S(=O)(=O)N1 [Diazoxide] = -0.41
Nc1ccc(S(=O)(=O)NC(=O)c2ccccc2)cc1 [Sulfabenzamide] = -1.03
O=C(CCCN1CCC(O)(c2ccc(Cl)cc2)CC1)c1ccc(F)cc1 [Haloperidol] = -0.8
CCCCCOc1ccc(-c2ccc(-c3ccc(C(=O)N[C@H]4C[C@@H](O)[C@@H](O)NC(=O)[C@@H]5[C@@H](O)[C@@H](C)CN5C(=O)[C@H]([C@@H](C)O)NC(=O)[C@H]([C@H](O)[C@@H](O)c5ccc(O)cc5)NC(=O)[C@@H]5C[C@@H](O)CN5C(=O)[C@H]([C@@H](C)O)NC4=O)cc3)cc2)cc1 = 25.3
COc1cc(NC(C)CCCN)c2ncccc2c1 (centres undefined) [Primaquine Diphosphate] = -1.39
CN1CCN(c2c(F)cc3c(=O)c(C(=O)O)cn4c3c2OCN4C)CC1 [Marbofloxacin] = 0.33
CC[C@H](C)C(=O)O[C@H]1CCC=C2C=C[C@H](C)[C@H](CC[C@@H]3C[C@@H](O)CC(=O)O3)[C@H]21 [Mevastatin] = -0.29
CC(=O)OCC[N+](C)(C)C [Acetylcholine iodide] = -0.36
CC(=O)OC(C)C[N+](C)(C)C (centres undefined) [Methacholine chloride] = 0.26
CCS(=O)(=O)CCn1c([N+](=O)[O-])cnc1C [Tinidazole] = -0.47
C=C1CCN([C@H](C)[C@](O)(Cn2cncn2)c2ccc(F)cc2F)CC1 [Efinaconazole] = 7.05
CN(C/C=C/C#CC(C)(C)C)Cc1cccc2ccccc12 [Terbinafine HCl] = 1.65
Nc1ccc(S(=O)(=O)Nc2ncccn2)cc1 [Sodium sulfadiazine] = -0.68
CO[C@@H]1[C@@H](OC(N)=O)[C@@H](O)[C@H](Oc2ccc3c(O)c(NC(=O)c4ccc(O)c(CC=C(C)C)c4)c(=O)oc3c2C)OC1(C)C [Novobiocin Sodium] = 2.57
C[C@H]1NCc2cc(-c3ccc4c(=O)c(C(=O)O)cn(C5CC5)c4c3OC(F)F)ccc21 [Garenoxacin] = 0.84
